Give Ki for every item shown.
ASSAY_TARGET: rat mGluR5 receptor (Rattus norvegicus, UniProt P31424)
Construct: expressed in transfected cells; host or cells: HEK-293
Sequence (P31424 21-1203): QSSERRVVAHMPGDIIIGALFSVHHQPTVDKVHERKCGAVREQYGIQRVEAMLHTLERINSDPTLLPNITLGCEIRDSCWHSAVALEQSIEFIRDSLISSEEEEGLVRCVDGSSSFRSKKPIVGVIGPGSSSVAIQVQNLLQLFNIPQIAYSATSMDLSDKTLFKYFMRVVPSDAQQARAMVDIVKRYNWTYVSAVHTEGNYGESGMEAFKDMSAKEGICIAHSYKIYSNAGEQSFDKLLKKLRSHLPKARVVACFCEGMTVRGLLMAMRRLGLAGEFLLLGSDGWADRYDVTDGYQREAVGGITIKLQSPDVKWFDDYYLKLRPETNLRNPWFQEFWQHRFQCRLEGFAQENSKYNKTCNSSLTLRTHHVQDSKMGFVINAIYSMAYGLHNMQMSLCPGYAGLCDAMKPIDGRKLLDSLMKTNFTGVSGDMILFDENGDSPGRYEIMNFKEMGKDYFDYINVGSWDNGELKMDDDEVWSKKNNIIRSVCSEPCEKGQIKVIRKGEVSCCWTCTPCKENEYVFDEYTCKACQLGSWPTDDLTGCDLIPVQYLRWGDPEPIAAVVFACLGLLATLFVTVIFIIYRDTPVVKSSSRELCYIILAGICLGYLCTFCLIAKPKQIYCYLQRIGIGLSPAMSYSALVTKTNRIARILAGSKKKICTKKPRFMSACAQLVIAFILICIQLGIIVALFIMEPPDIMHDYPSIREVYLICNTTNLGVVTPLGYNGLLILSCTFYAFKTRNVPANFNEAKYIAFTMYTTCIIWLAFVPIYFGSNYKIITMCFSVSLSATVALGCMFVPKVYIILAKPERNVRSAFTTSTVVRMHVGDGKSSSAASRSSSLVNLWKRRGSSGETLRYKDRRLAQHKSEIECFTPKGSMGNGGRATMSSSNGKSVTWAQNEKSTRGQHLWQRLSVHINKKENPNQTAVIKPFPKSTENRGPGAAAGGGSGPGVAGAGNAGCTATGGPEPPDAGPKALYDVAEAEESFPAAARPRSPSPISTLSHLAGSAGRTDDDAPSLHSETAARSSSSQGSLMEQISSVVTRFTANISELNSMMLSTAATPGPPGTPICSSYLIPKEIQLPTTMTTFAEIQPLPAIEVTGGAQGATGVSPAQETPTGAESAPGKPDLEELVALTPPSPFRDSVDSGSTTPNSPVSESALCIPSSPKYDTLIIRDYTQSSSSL
METHOD: [3H]-MPEP displacement binding assay, HEK-293 cell membranes expressing rat mGluR5
CONDITION_LABEL: [3H]-MPEP displacement, rat mGluR5; read-out: Median Ki
Protocol: MGluR5 expressing HEK-293 cells were scraped off a plate, transferred to centrifuge tubes and washed twice by centrifugation (2000 rpm for 10 minutes, at 4° C.) in buffer (50 mM Tris pH 7.5). The resulting pellets were aliquoted and stored at minus 80° C. […] Non-specific binding was determined in the presence of 10 μM MPEP. […] Percent inhibition and Ki values were generated by GraphPad Prism and Excel Fit. IC50 values were calculated using GraphPad by fitting to a 1 or 2 site-binding model. […]
API: value field is a number in nM; no unit string.

Recall the recorded Ki for COc1ccc(C(=O)N2CCN(c3nc4ccccc4o3)CC2)cc1C#Cc1ccccn1 [Compound 257] with rat mGluR5 receptor (Rattus norvegicus, UniProt P31424) and state it.
38

Also, COc1ccnc(N2CCN(C(=O)c3ccc(F)c(C#Cc4ccccn4)c3)CC2)n1 [Compound 317] please.
20

Record: COc1ccc(C(=O)N2CCN(S(=O)(=O)c3ccc(Br)s3)CC2)cc1C#Cc1ccccn1 [Compound 269]
49

Further, for COc1ccc(C(=O)N2CCN(c3nnc(-c4ncc([N+](=O)[O-])n4C)s3)CC2)cc1C#Cc1ccccn1 [Compound 283] ?
2310

Okay, and COc1ccc(C(=O)N2C[C@@H]3C[C@@H]2CN3c2ccc(F)cc2)cc1C#Cc1ccccn1 [Compound 227] ?
71

How about this compound: O=C(c1ccc(F)c(C#Cc2ccccn2)c1)N1CCN(c2ncc(Cl)cc2Cl)CC1 [Compound 314]
1840

Likewise for COc1ccc(C(=O)N2CCN(c3ccccc3Cl)CC2)cc1C#Cc1ccccn1 [Compound 216] ?
107

// query: COc1ccc(C(=O)N2CCN(c3ncccc3Cl)CC2)cc1C#Cc1ccccn1 [Compound 186]
19

What would you report for COc1ccc(C(=O)N2CCN(c3ccc([N+](=O)[O-])cc3)CC2)cc1C#Cc1ccccn1 [Compound 232] ?
96

Also COc1ccc(C(=O)N2CCN(c3cc(Cl)nc(SC)n3)CC2)cc1C#Cc1ccccn1 [Compound 294] , if possible.
99

Record: COc1ccc(C(=O)N2CCCN(c3ncccc3C(F)(F)F)CC2)cc1C#Cc1ccccn1 [Compound 209]
674

Let us now turn to COc1ccc(C(=O)N2CCN(c3nsc4ccccc34)CC2)cc1C#Cc1ccccn1 [Compound 201]
3

For COc1ccc(C(=O)N2CCN(c3ccc(C#N)cn3)CC2)cc1C#Cc1ccccn1 [Compound 252] then?
33

Please give the result for COc1cccc(N2CCN(C(=O)c3ccc(OC)c(C#Cc4ccccn4)c3)CC2)n1 [Compound 213] too.
11

Follow-up item: COc1ccc(C(=O)N2CCN(c3ncccn3)CC2)cc1C#Cc1ccncc1 [Compound 355]
1570

Record: COc1ccc(C(=O)N2CCN(c3ncccn3)CC2)cc1C#Cc1cccc(OC(F)(F)F)c1 [Compound 356]
290

Would you mind doing COc1ccc(C(=O)N2CCN(c3ccccc3)CC2)cc1C#Cc1ccccn1 [Compound 292] as well?
14

Moving on to COc1ccc(C(=O)N2CCN(c3cccc(C)c3C)CC2)cc1C#Cc1ccccn1 [Compound 219]
168

Same again, this time with COc1ccc(C(=O)N2CCN(c3cccc(C)c3)CC2)cc1C#Cc1ccccn1 [Compound 196]
16

Try the compound COc1ccc(C(=O)N2CCN(c3ncccn3)CC2)cc1C#Cc1cccc([N+](=O)[O-])c1 [Compound 357]
239

Now this one: COc1ccc(C(=O)N2CCCN(c3ccccn3)CC2)cc1C#Cc1ccccn1 [Compound 205]
131

Same lookup for COc1ccnc(N2CCN(C(=O)c3ccc(OC)c(C#Cc4ccccn4)c3)CC2)n1 [Compound 200] , please.
21

// same read-out, input: COc1cnc(N2CCN(C(=O)c3ccc(OC)c(C#Cc4ccccn4)c3)CC2)nc1 [Compound 299]
25

Param item: COc1ccc(C(=O)N2CCN(S(=O)(=O)c3ccc(Cl)cc3)CC2)cc1C#Cc1ccccn1 [Compound 243]
14

Follow-up item: COc1ccc(C(=O)N2CCN(Cc3ccc(Cl)cc3Cl)CC2)cc1C#Cc1ccccn1 [Compound 280]
43

Same question, COc1ccnc(N2CCN(C(=O)c3ccc(C)c(C#Cc4ccccn4)c3)CC2)n1 [Compound 308] this time
8

Lookup COc1ccc(C(=O)N2CCN(c3ccccn3)C(=O)C2)cc1C#Cc1ccccn1 [Compound 330]
122

Okay, and COc1ccc(C(=O)N2CCCN(c3ccc(C(F)(F)F)cn3)CC2)cc1C#Cc1ccccn1 [Compound 210] ?
851
